The measurements presented in this section are drawn from PubChem BioAssay (NCI).

Tested on: MALME-3M melanoma
Test: NCI-60 one-dose screen, 48 h
Settings: 10 µM unless noted
This is part of a sample that, as a whole, favours compounds with a hit. Of some 83,000 tested, about 20% had one in any assay. Active and inactive are the calls of the source. The calls were made as follows: active = growth percent below 10; inactive = the rest.
Possible outcomes: active, inactive

# compound, group.label
measured = [
    ("CCN1C(=O)N(CC)C2C1NN=c1s/c(=C3\\C(=O)Nc4ccccc43)c(=O)n12 (centres undefined)", "inactive"),
    ("C[C@H]1[C@H](C)CC[C@]2(CO)CC[C@]3(C)C(=CC[C@@H]4[C@@]5(C)CCCNC(C)(C)[C@@H]5CC[C@]43C)[C@H]12", "active"),
    ("O=S(=O)(NCCCNc1nccc(-c2c(-c3ccccc3)nc3occn23)n1)c1ccc(Cl)cc1", "inactive"),
    ("CC1(C)CN(c2cnc(C(=O)Nc3cc(F)cc4cccnc34)cn2)CCN1", "inactive"),
    ("Cn1c(=O)c2[nH]c(CCCc3nc4c([nH]3)c(=O)n(C)c(=O)n4C)nc2n(C)c1=O", "inactive"),
    ("CC(=O)NCCCS(=O)(=O)O", "inactive"),
    ("O=C(NCCN1CCOCC1)OCc1nc2nc(Cl)nc(N3CCOCC3)c2[nH]1", "inactive"),
    ("COc1ccncc1C#Cc1cncc(C(=O)Nc2ccc(CN3CCN(C)CC3)c(C(F)(F)F)c2)c1", "active"),
    ("O=C1c2ccccc2-c2c1c1c(NCCCO)nc3ccccc3c1n2Cc1ccccc1", "active"),
    ("Cc1c([N+](=O)[O-])cc(C(C)(C)C)cc1[N+](=O)[O-]", "inactive"),
    ("CC(=O)c1cccc(NS(=O)(=O)c2cccc(C(=O)Nc3ccc(Br)cc3)c2)c1", "inactive"),
    ("O=C(/C=C\\c1ccc(OCCCCCC[P+](c2ccccc2)(c2ccccc2)c2ccccc2)cc1)c1ccc2c(c1)OCCO2", "active"),
    ("c1ccc2c(-c3c4ccsc4cc4[nH]c5ccccc5c34)c[nH]c2c1", "inactive"),
    ("O=C1OC(=O)C2C1CC=CC2c1ccccc1 (centres undefined)", "inactive"),
    ("COc1cc(-c2nc3sccn3c2-c2ccnc(NCCNS(=O)(=O)c3ccc(F)cc3)n2)ccc1F", "active"),
    ("O=C(NCCc1ccccn1)OCc1nc2nc(Cl)nc(N3CCOCC3)c2[nH]1", "inactive"),
    ("Cn1c(COC(=O)NCCn2ccnc2)nc2c(N3CCOCC3)nc(-c3ccccc3)nc21", "active"),
    ("COc1cc(C2CC(c3cccc(Nc4ccncc4)c3)=NN2c2ccc(Cl)cc2)cc(OC)c1OC (centres undefined)", "active"),
    ("COc1ccc(C(=O)c2cc(C)c(OC)c(C)c2)c(OC)c1N(C(=O)C(Cl)Cl)C(=O)C(Cl)Cl", "inactive"),
]
